experiment_description: Stat Signaling Pathway (AID 446);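 further: SIE-controlled beta-lactamase reporter measured as 460/530 nm FRET emission ratio; on the % scale 0 is the no-effect control and ±100 the full control effect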
test_parameters: ME-180 (cervical carcinoma) SIE beta-lactamase reporter, IL-6 stimulated, 5 h; at 17.2 µM (top of the series) unless noted
Method: NCGC Assay Overview: The IL-6/STAT signaling pathway was assayed in ME-180 cervical carcinoma cells by a beta-lactamase reporter gene controlled by a STAT Inducible Element (SIE). This reporter is induced by IL-6 at 40 pM AC50 and inhibited by the pan JAK inhibitor, 2-(1,1-Dimethylethyl)-9-fluoro-3,6-dihydro-7H-benz[h]-imidaz[4,5-f]isoquinolin-7-one, at approximately 10 nM AC50. Plated cells were incubated overnight and on the following day, stimulated with 40 pM IL-6 for 5 hrs. […]
Inconclusive results are not listed.
quantity: activity, negative = inhibition (%)
Express the result in % but write the number alone.

Data request: For the compound shown here, `Cc1nc(-c2coc3cc(OCC(=O)O)ccc3c2=O)cs1` , give the reported activity, negative = inhibition.
Data returned: 3.59

Further cases:
Data request: Requested read-out: activity, negative = inhibition. Entry: c1ccc2c(c1)CCOC2CNCCCN1CCCCC1 (stereo not given)
Data returned: 2.31

Data request: What value of measured activity, negative = inhibition is listed for COc1ccc(C(O)C(CN2CCOCC2)c2ccccc2)cc1 (stereo not given) ?
Data returned: 8.61

Data request: Record request: activity, negative = inhibition value, item `C(=N\n1cnnc1)/c1ccccn1`
Data returned: 7.02

Data request: Need activity, negative = inhibition, item C=CCOc1ccc(C2/C(=C(\O)c3ccc(F)cc3)C(=O)C(=O)N2CCCN(C)C)cc1 (stereo not given)
Data returned: 17
